# testSystem: (h)NET (Homo sapiens)
# Sequence (P23975 whole entry): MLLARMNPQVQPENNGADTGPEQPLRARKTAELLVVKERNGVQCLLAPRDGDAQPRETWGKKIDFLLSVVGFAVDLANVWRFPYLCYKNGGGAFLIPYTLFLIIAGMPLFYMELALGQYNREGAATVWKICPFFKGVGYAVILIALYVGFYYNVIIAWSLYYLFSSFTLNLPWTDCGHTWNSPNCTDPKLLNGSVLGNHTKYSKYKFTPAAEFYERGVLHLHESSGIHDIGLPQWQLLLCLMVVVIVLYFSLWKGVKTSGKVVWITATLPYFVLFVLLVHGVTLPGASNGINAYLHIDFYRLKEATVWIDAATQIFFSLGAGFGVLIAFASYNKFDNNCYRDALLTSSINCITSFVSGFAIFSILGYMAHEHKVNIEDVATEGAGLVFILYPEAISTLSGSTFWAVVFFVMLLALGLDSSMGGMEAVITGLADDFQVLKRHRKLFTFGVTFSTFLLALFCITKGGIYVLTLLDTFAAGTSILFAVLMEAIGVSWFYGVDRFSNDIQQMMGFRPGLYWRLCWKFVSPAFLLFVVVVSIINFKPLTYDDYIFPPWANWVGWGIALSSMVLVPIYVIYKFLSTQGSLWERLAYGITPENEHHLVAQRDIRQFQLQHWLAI
# experimentDescription: block of [3H]norepinephrine reuptake in HEK-(h)NET cells
# conditionLabel: read-out: Uptake, IC50 [3H]NE; bound given in μM

{"molecule": "CC(C)(C)NC(CCC1CCCCC1)C(=O)c1cccc(Cl)c1 (stereo not shown)", "IC50": "> 10 µM"}

* * *

Each entry below lists one item and its recorded Locomotor Activity 8-Hour Time, min Period, length value.
# Tested on: mice
# experimentDescription: locomotor activity, 8-h time course protocol
# Assay type: in vivo
# conditionLabel: duration of locomotor activity
observedProperty: Locomotor Activity 8-Hour Time, min Period, length

{"molecule": "CCCCCC(NC(C)(C)C)C(=O)c1cccc(Cl)c1 (stereo not drawn) [Compound 2r]", "result": "280 to 460 min"}
{"molecule": "CC(C(=O)c1cccc(Cl)c1)N(C)C(C)(C)C (stereo not drawn) [Compound 2cc]", "result": "200 to 340 min"}
{"molecule": "Cc1ccc(C(=O)C(C)NC(C)(C)C)cc1 (stereo not drawn) [Compound 2h]", "result": "60 to 140 min"}
